Assay: Antiproliferative activity against ID8 cells
Format: functional, cell-based
Details: Mus musculus
measured-attribute: IC50
Express the reported value numerically, then name its unit.

Reported IC50, compound CC(C)C[C@H](NC(=O)OC(C)(C)C)C(=O)Nc1ccc(O)c2c(=O)cc(-c3ccccc3Cl)oc12 : ____ 5.1 µM

Would you mind doing CSCC[C@@H](NC(=O)OC(C)(C)C)C(=O)Nc1ccc(O)c2c(=O)cc(-c3ccccc3Cl)oc12 as well? 13 µM

Would you mind doing O=C(Nc1ccc(O)c2c(=O)cc(-c3ccccc3Cl)oc12)c1ccc(Cl)c(Cl)c1 as well? 13 µM

Would you mind doing O=C(Nc1ccc(O)c2c(=O)cc(-c3ccccc3Cl)oc12)c1ccc(Cl)cc1 as well? 5.5 µM

Would you mind doing C[C@@H](NC(=O)OC(C)(C)C)C(=O)Nc1ccc(O)c2c(=O)cc(-c3ccccc3Cl)oc12 as well? 104 µM

Would you mind doing Cc1ccc(C(=O)Nc2ccc(O)c3c(=O)cc(-c4ccccc4Cl)oc23)cc1 as well? 16 µM

Would you mind doing CC(C)C[C@@H](NC(=O)OC(C)(C)C)C(=O)Nc1ccc(O)c2c(=O)cc(-c3ccccc3Cl)oc12 as well? 17 µM
